test system: MOLT-4 leukemia; assay: NCI-60 one-dose screen, 48 h; conditions: 10 µM unless noted
The panel holds about 83,000 compounds, 20% with a hit somewhere; the sample as a whole holds those more often. Activity calls are given as the source filed them. How the source made its calls: active means growth percent below 10; inactive means the rest.
Pick one and only one: class 1 for active, class 0 for inactive

GET /call?item= COc1cc(/C=C/C(=O)c2ccc(C(F)(F)F)cc2)ccc1Oc1nc(NCCO)nc(N2CCOCC2)n1 returns the recorded outcome of this test.
class 1

GET /call?item= NS(=O)(=O)c1cccc(Nc2nc(SCC(=O)c3ccc(Br)cc3)nc3ccccc23)c1 returns the recorded outcome of this test.
class 0

GET /call?item= Clc1ccc(-c2cn3cc(Cc4ccc(Cl)c(Cl)c4)sc3n2)cc1 returns the recorded outcome of this test.
class 0

GET /call?item= CCOC(=O)c1sc(NCC(=O)Nc2cccc([N+](=O)[O-])c2)c(C(=O)OCC)c1C returns the recorded outcome of this test.
class 1
